assay: Clearance in po dosed rat; format: ADME, organism-based; conditions: in vivo
endpoint label: CL/F (mL/min/kg)

P. FC(F)(F)c1ccc(C2(Nc3nc(Cl)nc4[nH]ncc34)CC2)cc1
Q. Cc1nc(NC2(c3ccc(C(F)(F)F)cc3)CC2)c2cnn(C)c2n1
Could you point out whether the larger CL/F belongs to P or to Q ? Answer format: the label of the selected item. Q
(Q: 44.4 mL/min/kg, P: 8.44 mL/min/kg)

====

experiment: Solubility of the compound at pH 6.5; type: physicochemical; settings: buffer
endpoint label: solubility (µM)

Example entries begin here.
C[C@@H](Nc1nc(Cl)nc2c1cnn2C)c1ccc(C(F)(F)F)cc1 :: 159
Cn1ncc2c(NCc3ccc(C(F)(F)F)cc3)nc(Cl)nc21 :: 164
Cn1ncc2c(NC3(c4ccc(C(F)(F)F)cc4)CC3)nc(O)nc21 :: 175

P. Cn1ncc2c(N3CCCC3c3ccc(C(F)(F)F)cc3)nc(Cl)nc21 (stereo unspecified)
Q. Cn1ncc2c(NCc3cccc(Cl)c3)nc(Cl)nc21
R. Cn1ncc2c(NCc3ccccc3Cl)nc(Cl)nc21
# sort list by recorded solubility, greatest to least To answer, arrange all of the labels according to the requested order. P, Q, R
(P: 139 µM, Q: 78 µM, R: 44 µM)
